Hey, just so you know, these numbers are from patent US7101878B1.

target: NK1 (Homo sapiens); experiment: biochemical
Sequence (P25103 whole entry): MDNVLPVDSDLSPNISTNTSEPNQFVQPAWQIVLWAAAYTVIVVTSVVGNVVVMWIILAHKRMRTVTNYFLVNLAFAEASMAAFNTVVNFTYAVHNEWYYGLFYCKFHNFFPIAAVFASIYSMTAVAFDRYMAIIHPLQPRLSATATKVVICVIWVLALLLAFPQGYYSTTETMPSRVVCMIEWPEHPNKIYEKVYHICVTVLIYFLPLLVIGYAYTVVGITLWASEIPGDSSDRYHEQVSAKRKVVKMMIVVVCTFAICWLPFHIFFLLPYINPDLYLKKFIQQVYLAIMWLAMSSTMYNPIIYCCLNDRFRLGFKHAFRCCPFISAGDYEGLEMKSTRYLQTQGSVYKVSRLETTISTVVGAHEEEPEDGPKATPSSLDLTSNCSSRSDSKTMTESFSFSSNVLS
pKi: −log10 of the molar value.
Endpoint label: pKi

COc1cccc(OC)c1NC(=O)c1ccc(Cc2cc3c(cc2C)C(C)(C)CCC3(C)C)o1 [Compound 20]    < 6.00

---

Listed here are molecules together with their documented remaining activity at 10 µM.
target: human GnRH receptor (Homo sapiens, UniProt P30968); construct: expressed in transfected cells; host or cells: HEK 293 (hGnRH-R/293, from Dr. Stuart Sealfon); assay: Radioligand binding, 125I-GnRH-A displacement, membranes of HEK 293 cells with human GnRH receptor; conditions: 1 h, substrate remaining; 10 uM compound; closer to zero = closer to 100% inhibition; read-out: S%R 10 uM hGnRHR
Sequence (P30968 whole entry): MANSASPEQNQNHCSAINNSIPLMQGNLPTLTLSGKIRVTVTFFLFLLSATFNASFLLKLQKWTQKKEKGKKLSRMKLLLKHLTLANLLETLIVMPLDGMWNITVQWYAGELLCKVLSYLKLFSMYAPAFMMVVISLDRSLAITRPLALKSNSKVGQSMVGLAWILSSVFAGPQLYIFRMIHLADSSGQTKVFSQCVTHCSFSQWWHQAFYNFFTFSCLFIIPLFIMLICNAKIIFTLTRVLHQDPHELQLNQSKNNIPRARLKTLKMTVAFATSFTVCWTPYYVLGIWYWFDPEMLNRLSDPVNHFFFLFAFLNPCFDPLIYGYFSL
Endpoint label: remaining activity at 10 µM (%)

COc1cc(C#N)c(NC(=O)c2ccc(Cc3cc4c(cc3C)C(C)(C)CCC4(C)C)o2)cc1OC    33
COc1ccc(NC(=O)c2ccc(Cc3cc4c(cc3C)C(C)(C)CCC4(C)C)o2)c(Oc2ccc(Cl)cc2)n1    48
CC(=O)c1ccc(NC(=O)c2ccc(Cc3cc4c(cc3C)C(C)(C)CCC4(C)C)o2)cc1    55
